Attribute: IC50
biological target: UniProt Q9WTR4
Sequence (Q9WTR4 whole entry): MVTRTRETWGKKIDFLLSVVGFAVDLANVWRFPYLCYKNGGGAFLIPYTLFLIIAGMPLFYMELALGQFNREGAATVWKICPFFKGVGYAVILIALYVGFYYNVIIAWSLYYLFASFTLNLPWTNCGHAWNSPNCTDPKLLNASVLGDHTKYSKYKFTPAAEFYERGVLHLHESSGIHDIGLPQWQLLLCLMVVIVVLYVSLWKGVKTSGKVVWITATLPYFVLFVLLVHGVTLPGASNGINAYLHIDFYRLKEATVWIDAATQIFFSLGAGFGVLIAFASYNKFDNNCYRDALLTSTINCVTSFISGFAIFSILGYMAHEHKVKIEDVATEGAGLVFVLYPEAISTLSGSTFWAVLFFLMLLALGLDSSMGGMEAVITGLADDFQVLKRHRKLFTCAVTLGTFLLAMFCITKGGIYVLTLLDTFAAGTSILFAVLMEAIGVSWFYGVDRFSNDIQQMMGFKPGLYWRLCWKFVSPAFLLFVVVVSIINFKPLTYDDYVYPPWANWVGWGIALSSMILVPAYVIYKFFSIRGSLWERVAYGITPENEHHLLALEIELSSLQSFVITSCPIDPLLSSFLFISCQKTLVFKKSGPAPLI
Your answer should be a plain number; it is taken to be in µM.

Before answering, review these 7 worked examples.
CN1C2CCC1C(C(=O)OCCc1ccccc1)C(OC(=O)c1ccccc1)C2 (stereo not drawn) :: 19.9
Cc1ccc(C2CC3CCC(C2C(=O)Oc2cccc(C)c2)N3C)cc1 (stereo not drawn) :: 2.14
CC(C)OC(=O)C1C(OC(=O)c2ccccc2)CC2CCC1N2C (stereo not drawn) :: 30.3
CN1C2CCC1C(C(=O)N1CCOCC1)C(c1ccc(Cl)cc1)C2 (stereo not drawn) :: 8.55
CON(C)C(=O)C1C(OC(=O)c2ccccc2)CC2CCC1N2C (stereo not drawn) :: 3.94
CN1C2CCC1C(C(N)=O)C(OC(=O)c1ccccc1)C2 (stereo not drawn) :: 3.98
CN1C2CCC1C(C(=O)Oc1ccc(I)cc1)C(c1ccc(Cl)cc1)C2 (stereo not drawn) :: 0.968

Shift focus to the following entry.
For the molecule CN1C2CCC1C(C(=O)NCO)C(c1ccc(Cl)cc1)C2 (stereo not drawn) , what IC50 is on record?
0.144
